Reference source: the supplement of paper PMC10627819

Assign Bliss interaction score to each entry below.
- System: S. pneumoniae D39V;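 note: first quartile when negative (synergy) and third quartile when positive (antagonism)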
- PROCEDURE_TEXT: Bliss interaction score (quartile over a dose matrix) (fitness difference); higher = more antagonism (negative = synergy)
# output: bare number, no unit

Task: What does the data say about its Bliss interaction score? Entry: CC(=O)Oc1ccccc1C(=O)O [Acetylsalicylicacid] + Cn1nnc(-c2ccc(-c3ccc(N4C[C@H](CO)OC4=O)cc3F)cn2)n1 [Tedizolid]
Result: 0.0802

Task: // Bliss interaction score lookup, key: N#CC(C#N)=NNc1cccc(Cl)c1 [CCCP] + Cc1cc(NS(=O)(=O)c2ccc(N)cc2)no1 [Sulfamethoxazol]
Result: 0.0794

Task: So what does the record say about Bliss interaction score for N#CC(C#N)=NNc1cccc(Cl)c1 [CCCP] + CN(N=O)C(=O)N[C@@H](C=O)[C@@H](O)[C@H](O)[C@H](O)CO [Streptozotocin] ?
Result: 0.0737

Task: Can you look up the measured Bliss interaction score of N#CC(C#N)=NNc1cccc(Cl)c1 [CCCP] + O=C1CN(/N=C/c2ccc([N+](=O)[O-])o2)C(=O)N1 [Nitrofurantoin] for me?
Result: -0.109

Task: Any idea what Bliss interaction score was measured for N#CC(C#N)=NNc1cccc(Cl)c1 [CCCP] + CO[C@@H]1[C@@H](OC(N)=O)[C@@H](O)[C@H](Oc2ccc3c(O)c(NC(=O)c4ccc(O)c(CC=C(C)C)c4)c(=O)oc3c2C)OC1(C)C [Novobiocin] ?
Result: 0.164

Task: I would be grateful if you could share the reported Bliss interaction score for CO/N=C(\C(=O)N[C@@H]1C(=O)N2C(C(=O)O)=C(COC(C)=O)CS[C@H]12)c1csc(N)n1 [Cefotaxime] + CN1C2=CC=CC=C2N=C3C1=CC=CC3=O [Pyocyanin] .
Result: 0.0458

Task: Any idea what Bliss interaction score was measured for C[C@H]1c2cccc(O)c2C(=O)C2=C(O)[C@]3(O)C(=O)C(C(N)=O)=C(O)[C@@H](N(C)C)[C@@H]3[C@@H](O)[C@@H]21 [Doxycycline] + CN[C@@H]1[C@H](O[C@H]2[C@H](O[C@H]3[C@H](O)[C@@H](O)[C@H](N=C(N)N)[C@@H](O)[C@@H]3N=C(N)N)O[C@@H](C)[C@]2(O)C=O)O[C@@H](CO)[C@H](O)[C@H]1O [Streptomycin] ?
Result: -0.0673

Task: Can you share its Bliss interaction score? I mean this compound: O=C(O)c1cn(C2CC2)c2cc(N3CCNCC3)c(F)cc2c1=O [Ciprofloxacin] + CC(=O)O[C@H]1C[C@@]2(C)[C@@H](C[C@@H](O)[C@H]3[C@@]4(C)CC[C@@H](O)[C@@H](C)[C@@H]4CC[C@@]32C)/C1=C(\CCC=C(C)C)C(=O)O [Fusidic acid]
Result: 0.0674

Task: Consider the compound N#CC(C#N)=NNc1cccc(Cl)c1 [CCCP] + CO/N=C(\C(=O)N[C@@H]1C(=O)N2C(C(=O)[O-])=C(C[N+]3(C)CCCC3)CS[C@H]12)c1csc(N)n1 [Cefepime] and give its measured Bliss interaction score.
Result: -0.0827

Task: Recorded Bliss interaction score for N#CC(C#N)=NNc1cccc(Cl)c1 [CCCP] + COc1cc(Cc2cnc(N)nc2N)cc(OC)c1OC [Trimethoprim] , please?
Result: 0.183

Task: Param item = Cc1ncc([N+](=O)[O-])n1CCO [Metronidazole] + CN[C@H](CC(C)C)C(=O)N[C@H]1C(=O)N[C@@H](CC(N)=O)C(=O)N[C@H]2C(=O)N[C@H]3C(=O)N[C@H](C(=O)N[C@H](C(=O)O)c4cc(O)cc(O)c4-c4cc3ccc4O)[C@H](O[C@H]3C[C@](C)(N)[C@@H](O)[C@H](C)O3)c3ccc(c(Cl)c3)Oc3cc2cc(c3O[C@@H]2O[C@H](CO)[C@@H](O)[C@H](O)[C@H]2O[C@H]2C[C@](C)(NCc3ccc(-c4ccc(Cl)cc4)cc3)[C@@H](O)[C@H](C)O2)Oc2ccc(cc2Cl)[C@H]1O [Oritavancin] ; retrieve measured Bliss interaction score.
Result: -0.0396

Task: Give its Bliss interaction score value. Item: C[C@@H]1O[C@@H]1P(=O)(O)O [Fosfomycin] + CC(=O)O[C@H]1C[C@@]2(C)[C@@H](C[C@@H](O)[C@H]3[C@@]4(C)CC[C@@H](O)[C@@H](C)[C@@H]4CC[C@@]32C)/C1=C(\CCC=C(C)C)C(=O)O [Fusidic acid]
Result: 0.0774

Task: Consider the compound shown here: CO/N=C(\C(=O)N[C@@H]1C(=O)N2C(C(=O)O)=C(COC(N)=O)CS[C@H]12)c1ccco1 [Cefuroxime] + CN(N=O)C(=O)N[C@@H](C=O)[C@@H](O)[C@H](O)[C@H](O)CO [Streptozotocin] What is its recorded Bliss interaction score?
Result: -0.0368

Task: Field request: Bliss interaction score | item: CO/N=C(\C(=O)N[C@@H]1C(=O)N2C(C(=O)O)=C(COC(C)=O)CS[C@H]12)c1csc(N)n1 [Cefotaxime] + CO[C@@]12[C@H](COC(N)=O)C3=C(C(=O)C(C)=C(N)C3=O)N1C[C@@H]1N[C@@H]12 [MitomycinC]
Result: 0.118

Task: For C[C@@H]1O[C@@H]1P(=O)(O)O [Fosfomycin] + O=C1CN(/N=C/c2ccc([N+](=O)[O-])o2)C(=O)N1 [Nitrofurantoin] , what is its reported Bliss interaction score?
Result: 0.122

Task: Which Bliss interaction score reading was recorded for the compound CC(=O)Oc1ccccc1C(=O)O [Acetylsalicylicacid] + CO/N=C(\C(=O)N[C@@H]1C(=O)N2C(C(=O)[O-])=C(C[N+]3(C)CCCC3)CS[C@H]12)c1csc(N)n1 [Cefepime] ?
Result: 0.118

Task: Entry CO/N=C(\C(=O)N[C@@H]1C(=O)N2C(C(=O)O)=C(COC(N)=O)CS[C@H]12)c1ccco1 [Cefuroxime] + C[C@@H]1O[C@@H]1P(=O)(O)O [Fosfomycin] has what Bliss interaction score?
Result: 0.0411

Task: Would you mind telling me what Bliss interaction score value was observed for CC(=O)Oc1ccccc1C(=O)O [Acetylsalicylicacid] + O=C(O)c1cn(C2CC2)c2cc(N3CCNCC3)c(F)cc2c1=O [Ciprofloxacin] ?
Result: 0.144
